Hey, just so you know, these numbers are from the RNAGym collection of RNA variant scans (doi:10.1126/science.aae0568).

B1: tRNA (parent)
chain: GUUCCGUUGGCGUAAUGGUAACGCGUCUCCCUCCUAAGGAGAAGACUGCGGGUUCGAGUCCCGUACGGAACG

Variants of: B1
Method summary: yeast fitness relative to wild type (ratio to wild type); higher = fitter; tRNA-Arg(CCU), competitive growth, 37 C, YPD
Variants at the floor of the assay were thinned out.
Value type: yeast fitness
Form rule: numeric answer, no unit written next to it.

Examples with their reported yeast fitness follow.
{"columns": ["Sequence code", "Value type", "Endpoint result"],
 "data": [
  ["GUUCCGUUGGCGAAAUGGUAACGCGUCUCCCCCCUAAGGAGAAGACUGCGGGUUCGAGUCCCGUCCGGAACG [U13A U32C A65C]", "yeast fitness", 0.539],
  ["GUUCCGUUGGCGUAAUGGUAACGCGUCUCCCUCCUCAGGAGAAGACAGCGGGUUCUAGUCCCGUACGGAACG [A36C U47A G56U]", "yeast fitness", 0.617],
  ["GUUCCGUUGGCGUAAUGGUAACGGGUCUCCCUCCUAAGAAGAAGACUGCGGGUUCGAGUCCCGUACGGAACG [C24G G39A]", "yeast fitness", 0.643],
  ["GUUCCGUUGGCGUAAUGGUCACGCGUCUCCCUCCUAAGGAGAAGAAUGGGGGUUCGAGUCCCGUACGGAACG [A20C C46A C49G]", "yeast fitness", 0.548],
  ["GUUCCGUUGGCGUAAUGGGUACGCGUGUCCCUCCUAAGGAGAAGACUGCGGGUUCGAAUCCCGUACGGAACG [U19G A20U C27G G58A]", "yeast fitness", 0.527]
]}

## Task # yeast fitness lookup, item GUUGCGUUGGCGUAAAGGUAACGCGUCUCCCUCCUCAGGAGAAGACUGCGGGUUCGAGUCCCGUACGGAACG [C4G U16A A36C]
## Result 0.579

## Task Form field: reported yeast fitness of GUGCCGUAGGCGUAAUGCUAACGCGUCUCCCUCCUAAGGAGAAGACUGCGGGUUCGAGUCCCGUACGGAACG [U3G U8A G18C]
## Result 0.63

## Task Param item = GUUCCGUUGGCGUAAUGGUAACGCGUCUCCCUCUUAUGGAGAAGAAUGCGAGUUCGAGUCCCGUACGGAACG [C34U A37U C46A G51A] ; retrieve measured yeast fitness.
## Result 0.567

## Task Please give the measured yeast fitness for this variant: GUUCCGUUGGCGUUGUGGUACCGCGUCUCCCUCCUAAGGAGAAGACUGCGGGUUCAAGUCCUGUUCGGAACG [A14U A15G A21C G56A C62U A65U]
## Result 0.554

## Task Quick one: yeast fitness for GUUCGGUUGGCGUAAUGGUUACGCGUCUCCCUCCUAGGGAGAAGACUGCGGGUUCGAGUCCCGAACGGAACG [C5G A20U A37G U64A] ?
## Result 0.577
